target: STAT4 SH2 domain (human STAT4 amino acids 136 to 705) (Homo sapiens); assay: Fluorescence polarization direct binding assay, labelled phosphopeptides to truncated STAT4; conditions: SD
Sequence (Q14765 136-705): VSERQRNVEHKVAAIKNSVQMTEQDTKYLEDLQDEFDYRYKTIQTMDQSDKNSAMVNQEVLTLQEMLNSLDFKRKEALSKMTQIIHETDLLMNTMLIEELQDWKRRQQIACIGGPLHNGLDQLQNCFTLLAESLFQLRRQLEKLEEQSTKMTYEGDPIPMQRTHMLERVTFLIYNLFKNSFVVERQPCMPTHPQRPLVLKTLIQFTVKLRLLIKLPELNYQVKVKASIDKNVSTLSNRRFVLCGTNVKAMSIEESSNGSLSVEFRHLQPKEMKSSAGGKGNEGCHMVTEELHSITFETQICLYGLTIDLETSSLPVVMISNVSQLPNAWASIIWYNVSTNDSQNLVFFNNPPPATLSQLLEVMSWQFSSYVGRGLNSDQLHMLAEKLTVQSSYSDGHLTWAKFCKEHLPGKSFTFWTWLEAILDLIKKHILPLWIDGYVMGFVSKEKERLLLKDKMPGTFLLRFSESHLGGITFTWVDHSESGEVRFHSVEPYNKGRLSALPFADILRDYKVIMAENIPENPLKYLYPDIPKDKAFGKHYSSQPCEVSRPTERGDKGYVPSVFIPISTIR
Non-standard residues stand in square brackets, D forms with d. Residues, ends and D or L forms follow the SMILES beside them. *: point of attachment. 5FAM = O=C1OC2(c3ccc(O)cc3Oc3cc(O)ccc32)c2ccc(C(=O)*)cc21; pY = N[C@@H](Cc1ccc(OP(=O)(O)O)cc1)C(=O)O
Assign labels as follows, please: 1 for Kd below 200 nM; 0 for Kd equal to or exceeding 200 nM.

Recorded results for 5 compounds are shown here.
{"Compound": "CC(C)C[C@H](NC(=O)[C@H](Cc1ccc(OP(=O)(O)O)cc1)NC(=O)CNC(=O)c1ccc2c(c1)C(=O)OC21c2ccc(O)cc2Oc2cc(O)ccc21)C(=O)N[C@H](C(=O)N[C@@H](CC(C)C)C(=O)N[C@@H](CC(=O)O)C(=O)N[C@@H](CCCCN)C(=O)N[C@@H](Cc1c[nH]c2ccccc12)C(=O)O)C(C)C", "Assigned category": 0}
{"Compound": "CC[C@H](C)[C@H](NC(=O)[C@H](CC(C)C)NC(=O)[C@H](CC(=O)O)NC(=O)[C@H](CCC(N)=O)NC(=O)[C@H](Cc1c[nH]c2ccccc12)NC(=O)[C@@H]1CCCN1C(=O)[C@@H](NC(=O)[C@H](Cc1ccc(OP(=O)(O)O)cc1)NC(=O)CNC(=O)c1ccc2c(c1)C(=O)OC21c2ccc(O)cc2Oc2cc(O)ccc21)C(C)C)C(=O)O [5-CF-GpYVPWQDLI] (5FAM-G[pY]VPWQDLI-OH)", "Assigned category": 1}
{"Compound": "CC(C)C[C@H](NC(=O)[C@H](Cc1ccc(OP(=O)(O)O)cc1)NC(=O)CNC(=O)c1ccc2c(c1)C(=O)OC21c2ccc(O)cc2Oc2cc(O)ccc21)C(=O)N1CCC[C@H]1C(=O)N[C@@H](CCC(N)=O)C(=O)N[C@H](C(=O)N[C@H](C(N)=O)C(C)C)[C@@H](C)O [5-CF-GpYLPQTV-NH2] (5FAM-G[pY]LPQTV-NH2)", "Assigned category": 1}
{"Compound": "CC(C)C[C@H](NC(=O)[C@@H](NC(=O)[C@H](Cc1c[nH]cn1)NC(=O)[C@@H]1CCCN1C(=O)[C@H](CCCCN)NC(=O)[C@H](CC(=O)O)NC(=O)[C@H](Cc1ccc(OP(=O)(O)O)cc1)NC(=O)CNC(=O)c1ccc2c(c1)C(=O)OC21c2ccc(O)cc2Oc2cc(O)ccc21)C(C)C)C(=O)O [5-CF-GpYDKPHVL] (5FAM-G[pY]DKPHVL-OH)", "Assigned category": 0}
{"Compound": "CC[C@H](C)[C@H](NC(=O)[C@H](CC(N)=O)NC(=O)[C@H](CO)NC(=O)[C@@H]1CCCN1C(=O)[C@H](CC(C)C)NC(=O)[C@H](Cc1ccc(OP(=O)(O)O)cc1)NC(=O)CNC(=O)c1ccc2c(c1)C(=O)OC21c2ccc(O)cc2Oc2cc(O)ccc21)C(=O)N[C@@H](CC(=O)O)C(=O)O [5-CF-GpYLPSNID] (5FAM-G[pY]LPSNID-OH)", "Assigned category": 1}

q: Hi there! Is Kd for CC[C@H](C)[C@H](NC(=O)[C@H](CC(N)=O)NC(=O)[C@H](CCC(N)=O)NC(=O)[C@@H]1CCCN1C(=O)[C@H](CC(C)C)NC(=O)[C@H](Cc1ccc(OP(=O)(O)O)cc1)NC(=O)CNC(=O)c1ccc2c(c1)C(=O)OC21c2ccc(O)cc2Oc2cc(O)ccc21)C(=O)N[C@@H](CC(=O)O)C(=O)O [5-CF-GpYLPQNID] (5FAM-G[pY]LPQNID-OH) below 200 nM, do you know?
a: 1
